- Read-out: Tissue plasminogen activator (tPA), PLAT (gene 5327)
- assay_protocol: BSK_BE3C_tPA: BioMAP Diversity Plus: BE3C Assay for Tissue plasminogen activator (tPA) Biomarker Activity (AID 2283041);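 further: tPA level quantified by ELISA one day after compound addition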
- details: primary human bronchial epithelial cells; actives raise or lower the signal
The source made the active and inactive calls. How the source made its calls: active means hit-call score of the fitted dose curve at least 0.9, where 1 is the maximum; inactive means score below 0.9.
Your answer must be one of the following: True for active, False for inactive

Previously resolved entries follow.
compound: COC(=O)c1ccccc1N
group: False
--
compound: O=C(Nc1ccccc1)c1ccccc1I
group: False
--
compound: Oc1ccccc1Cl
group: False
--
compound: CNC(=O)Oc1cccc2c1OC(C)(C)C2
group: False
--
compound: Cc1ccc(N)c(N)c1
group: False

Ask: For "CCN(CC)CCO" , what call appears in the results of this test?
Result: False

Ask: For "CC(C)(C)OOC(C)(C)CCC(C)(C)OOC(C)(C)C" , what call appears in the results of this test?
Result: False

Ask: For "CC(C)N(Cc1ccccc1)C(=O)C(C)(C)C" , what call appears in the results of this test?
Result: False

Ask: For "ClC1=C(Cl)[C@]2(Cl)[C@H]3[C@H]([C@@H]4C=C[C@H]3C4)[C@@]1(Cl)C2(Cl)Cl" , what call appears in the results of this test?
Result: False

Ask: For "CCN(CC)N=O" , what call appears in the results of this test?
Result: False

Ask: For "Nc1ccc(Cc2ccc(N)cc2)cc1" , what call appears in the results of this test?
Result: False

Ask: For "Cc1cccc(N)c1N" , what call appears in the results of this test?
Result: False

Ask: For "Nc1ccc(N=Nc2ccccc2)cc1" , what call appears in the results of this test?
Result: False

Ask: For "O=C(Oc1ccc(Br)cc1)N1CCN2CCC1CC2" , what call appears in the results of this test?
Result: False

Ask: For "Clc1ccc(C(c2ccc(Cl)cc2)C(Cl)(Cl)Cl)cc1" , what call appears in the results of this test?
Result: False
